Reference source: PubChem BioAssay

# Assay Details: thallium flux activation in parental CHO cells, counter-screen for KCNQ1 potentiator project (AID 493006);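 on activation: fluorescence ratio of max minus min over baseline after K+ and Tl+ depolarization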
# Condition Label: parental CHO-K1 cells, FluxOR thallium flux, at 10 µM
Active and inactive are the calls of the source.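 How the source made its calls: active means duplicate-averaged activation above buffer control mean plus 5 SD of those controls; inactive means the rest.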
Labels: true (1) for active, false (0) for inactive

| Compound | Label Class |
| --- | --- |
| COc1ccc(OCC(=O)N2CCCC2=O)c([N+](=O)[O-])c1 | false (0) |
| Cc1cccc(C(=O)O/N=C(\N)c2cccc([N+](=O)[O-])c2)c1 | false (0) |
| CCN(CC)C(=S)NC(=O)c1ccc(Cl)cc1Cl | true (1) |
| CCOCC(=O)Nc1ccc2c(c1)N(S(=O)(=O)c1cccs1)CCC2 | false (0) |
| Cc1onc(-c2ccccc2)c1C(=O)NC(=S)NNC(=O)c1ccccc1O | false (0) |
| CCOC(=O)C1=C(CC)Nc2ccccc2N=C1NC(=O)CCNC(C)=O | false (0) |
| CC(/C=N/n1c(-c2ccc(C)cc2)n[nH]c1=S)=C\c1ccco1 | false (0) |
| COC(=O)CSc1nc(N)c2c3c(sc2n1)C(c1ccccc1)SC(c1ccccc1)C3 (stereo unspecified) | false (0) |
| Cn1c(=O)c2c(SC3CCCC3)nc(C3CC3)nc2n(C)c1=O | false (0) |
| C/C(CCc1oc2c(Br)cc(Br)cc2c1-c1ccc(C)o1)=N\O | false (0) |
| Cc1ccc(C)c(NC(=S)NNC(=O)c2csc(C(C)C)c2)c1 | true (1) |
